Tested on: MCF7 cell line
Experiment: In vitro cytotoxic activity, MTT method, MCF7
Type: cell-based, human
Conditions: MCF7, Conc. 0.391 µMol
Reported property: Viability % (%)
The answer is to be given in %; state only the numeric part.

Prompt: Tell me the measured Viability % of CC(=O)C1C(c2ccc(N(C)C)cc2)c2c(C)nc3sc(C(=O)Nc4ccccc4)c(N)c3c2CC1(C)O (stereo not shown) , please.
Completion: 91.95

Prompt: Ok, now CC(=O)C1C(c2ccc(N(C)C)cc2)c2c(C)nc3sc(C(=O)Nc4ccc(C)cc4)c(N)c3c2CC1(C)O (stereo not shown)
Completion: 100.2

Prompt: Now try CC(=O)C1C(c2ccc(N(C)C)cc2)c2c(C)nc3sc(C(=O)Nc4ccc(Cl)cc4)c(N)c3c2CC1(C)O (stereo not shown) .
Completion: 39.75

Prompt: Then what about the compound CC(=O)c1ccc(NC(=O)c2sc3nc(C)c4c(c3c2N)CC(C)(O)C(C(C)=O)C4c2ccc(N(C)C)cc2)cc1 (stereo not shown) ?
Completion: 34.52

###

Test system: MCF7 cell line
Test: In vitro cytotoxic activity, MTT method, MCF7
Assay type: cell-based, human
Settings: MCF7, Conc. 0.781 µMol
Exercise: state measured Viability % for each of the molecules provided.
Dear colleague, please send the value followed by its unit.

Prompt: Lookup: Viability % / MCF7 cell line / CC(=O)C1C(c2ccc(N(C)C)cc2)c2c(C)nc3sc(C(=O)Nc4ccc(C)cc4)c(N)c3c2CC1(C)O (stereo not shown)
Completion: 97.88%

Prompt: Quick one: CC(=O)c1ccc(NC(=O)c2sc3nc(C)c4c(c3c2N)CC(C)(O)C(C(C)=O)C4c2ccc(N(C)C)cc2)cc1 (stereo not shown)
Completion: 11.4%

Prompt: Another: CC(=O)C1C(c2ccc(N(C)C)cc2)c2c(C)nc3sc(C(=O)Nc4ccccc4)c(N)c3c2CC1(C)O (stereo not shown)
Completion: 65.44%

Prompt: Would you mind doing CC(=O)C1C(c2ccc(N(C)C)cc2)c2c(C)nc3sc(C(=O)Nc4ccc(Cl)cc4)c(N)c3c2CC1(C)O (stereo not shown) as well?
Completion: 29.98%

###

Experiment: Cytotoxicity on normal cell line WI-38
Assay type: cell-based, human
Settings: human, WI-38 cells (normal fetal lung fibroblasts), WI38, 25uM (log conc. 1.4); read-out: % viability
Reported property: viability at 25 µM (%)
Give the quantity in %, number only.

Prompt: Any idea what viability at 25 µM was measured for CC(=O)c1ccc(NC(=O)c2sc3nc(C)c4c(c3c2N)CC(C)(O)C(C(C)=O)C4c2ccc(N(C)C)cc2)cc1 (stereo not shown) ?
Completion: 46.9

###

Can you tell me Toxicity % for the items I'm about to list?
System: MCF7 cell line
Assay: In vitro cytotoxic activity, MTT method, MCF7
Type: cell-based, human
Conditions: MCF7, Conc. 0.391 µMol

Prompt: What does the record list as Toxicity % for CC(=O)C1C(c2ccc(N(C)C)cc2)c2c(C)nc3sc(C(=O)Nc4ccc(C)cc4)c(N)c3c2CC1(C)O (stereo not shown) ?
Completion: -0.2042%

Prompt: What about CC(=O)c1ccc(NC(=O)c2sc3nc(C)c4c(c3c2N)CC(C)(O)C(C(C)=O)C4c2ccc(N(C)C)cc2)cc1 (stereo not shown) ?
Completion: 65.48%

Prompt: # repeat for CC(=O)C1C(c2ccc(N(C)C)cc2)c2c(C)nc3sc(C(=O)Nc4ccccc4)c(N)c3c2CC1(C)O (stereo not shown)
Completion: 8.047%

Prompt: Another: CC(=O)C1C(c2ccc(N(C)C)cc2)c2c(C)nc3sc(C(=O)Nc4ccc(Cl)cc4)c(N)c3c2CC1(C)O (stereo not shown)
Completion: 60.25%

###

Tested on: MCF7 cell line
Assay: In vitro cytotoxic activity, MTT method, MCF7
Format: cell-based, human
Details: MCF7, Conc. 1.562 µMol
Reported property: Viability % (%)
Just the number in %, nothing appended.

Prompt: Look at this compound and give its reported Viability %. CC(=O)C1C(c2ccc(N(C)C)cc2)c2c(C)nc3sc(C(=O)Nc4ccc(Cl)cc4)c(N)c3c2CC1(C)O (stereo not shown) [Compound 8c]
Completion: 14.3

Prompt: Thanks! And CC(=O)C1C(c2ccc(N(C)C)cc2)c2c(C)nc3sc(C(=O)Nc4ccccc4)c(N)c3c2CC1(C)O (stereo not shown) [Compound 8a] ?
Completion: 34.72

Prompt: Then CC(=O)c1ccc(NC(=O)c2sc3nc(C)c4c(c3c2N)CC(C)(O)C(C(C)=O)C4c2ccc(N(C)C)cc2)cc1 (stereo not shown) [Compound 8d] ?
Completion: 6.168

Prompt: Moving on to CC(=O)C1C(c2ccc(N(C)C)cc2)c2c(C)nc3sc(C(=O)Nc4ccc(C)cc4)c(N)c3c2CC1(C)O (stereo not shown) [Compound 8b]
Completion: 86.64

###

System: A549 cell line
Experiment: In vitro cytotoxic activity, MTT method, A549
Conditions: A549, Conc. 0.391 µMol
Range-based classes on measured Toxicity %: bottom end (below 10%), midrange (10% to below 30%), top end (30% or more)

Prompt: Bin? CCOC(=O)CSc1nc(C)c2c(c1C#N)CC(C)(O)C(C(C)=O)C2c1ccc(N(C)C)cc1 (centres unmarked) [Compound 4]
Completion: midrange

Prompt: Would you kindly repeat that for CC(=O)C1C(c2ccc(N(C)C)cc2)c2c(C)nc(SCC#N)c(C#N)c2CC1(C)O (centres unmarked) [Compound 6] ?
Completion: bottom end

Prompt: Can you check CC(=O)C1C(c2ccc(N(C)C)cc2)c2c(C)nc(SCC(=O)Nc3ccc(C)cc3)c(C#N)c2CC1(C)O (centres unmarked) [Compound 7b] next?
Completion: midrange

Prompt: Continue with CSc1nc(C)c2c(c1C#N)CC(C)(O)C(C(C)=O)C2c1ccc(N(C)C)cc1 (centres unmarked) [Compound 3]
Completion: bottom end

Prompt: Now give it for CC(=O)C1C(c2ccc(N(C)C)cc2)c2c(C)[nH]c(=S)c(C#N)c2CC1(C)O (centres unmarked) [Compound 1] too.
Completion: bottom end

Prompt: # iterate: CC(=O)C1C(c2ccc(N(C)C)cc2)c2c(C)nc(SCC(=O)Nc3ccc(Cl)cc3)c(C#N)c2CC1(C)O (centres unmarked) [Compound 7c]
Completion: top end

Prompt: Another molecule: COc1cccc2c1C(=O)c1c(O)c3c(c(O)c1C2=O)C[C@@](O)(C(=O)CO)C[C@@H]3O[C@H]1C[C@H](N)[C@H](O)[C@H](C)O1 [Douxrbicin]
Completion: top end

Prompt: Then what about the molecule CC(=O)C1C(c2ccc(N(C)C)cc2)c2c(C)nc3sc(C(=O)Nc4ccccc4)c(N)c3c2CC1(C)O (centres unmarked) [Compound 8a] ?
Completion: midrange

Prompt: Same question for CC(=O)C1C(c2ccc(N(C)C)cc2)c2c(C)nc(SCC(=O)Nc3ccccc3)c(C#N)c2CC1(C)O (centres unmarked) [Compound 7a] please.
Completion: midrange

Prompt: Same question, CC(=O)C1C(c2ccc(N(C)C)cc2)c2c(C)nc3sc(C(=O)Nc4ccc(Cl)cc4)c(N)c3c2CC1(C)O (centres unmarked) [Compound 8c] this time
Completion: top end

Prompt: Entry to check: CC(=O)c1ccc(NC(=O)CSc2nc(C)c3c(c2C#N)CC(C)(O)C(C(C)=O)C3c2ccc(N(C)C)cc2)cc1 (centres unmarked) [Compound 7d]
Completion: top end

Prompt: Input CC(=O)c1ccc(NC(=O)c2sc3nc(C)c4c(c3c2N)CC(C)(O)C(C(C)=O)C4c2ccc(N(C)C)cc2)cc1 (centres unmarked) [Compound 8d]
Completion: top end

Prompt: Another molecule to look at: CC(=O)C1C(c2ccc(N(C)C)cc2)c2c(C)nc(SCC(N)=O)c(C#N)c2CC1(C)O (centres unmarked) [Compound 5]
Completion: bottom end

Prompt: Can you check CC(=O)C1C(c2ccc(N(C)C)cc2)c2c(C)nc3sc(C(=O)Nc4ccc(C)cc4)c(N)c3c2CC1(C)O (centres unmarked) [Compound 8b] next?
Completion: midrange

###

Test system: A549 cell line
Assay: In vitro cytotoxic activity, MTT method, A549
Details: A549, Conc. 0.391 µMol
Reported property: Viability % (%)
Number only, in %; omit the unit.

Prompt: Fill in: Viability % of CC(=O)C1C(c2ccc(N(C)C)cc2)c2c(C)nc3sc(C(=O)Nc4ccc(C)cc4)c(N)c3c2CC1(C)O (stereo not shown) is ___
Completion: 78.58

Prompt: Input CC(=O)c1ccc(NC(=O)c2sc3nc(C)c4c(c3c2N)CC(C)(O)C(C(C)=O)C4c2ccc(N(C)C)cc2)cc1 (stereo not shown)
Completion: 56.13

Prompt: One more compound: CC(=O)c1ccc(NC(=O)CSc2nc(C)c3c(c2C#N)CC(C)(O)C(C(C)=O)C3c2ccc(N(C)C)cc2)cc1 (stereo not shown)
Completion: 63.2

Prompt: What would you report for CC(=O)C1C(c2ccc(N(C)C)cc2)c2c(C)nc(SCC#N)c(C#N)c2CC1(C)O (stereo not shown) ?
Completion: 98.54

Prompt: Moving on to CC(=O)C1C(c2ccc(N(C)C)cc2)c2c(C)nc(SCC(=O)Nc3ccc(Cl)cc3)c(C#N)c2CC1(C)O (stereo not shown)
Completion: 66.59

Prompt: And what about the compound CC(=O)C1C(c2ccc(N(C)C)cc2)c2c(C)nc(SCC(=O)Nc3ccc(C)cc3)c(C#N)c2CC1(C)O (stereo not shown) ?
Completion: 85.8

Prompt: What do you get for CC(=O)C1C(c2ccc(N(C)C)cc2)c2c(C)[nH]c(=S)c(C#N)c2CC1(C)O (stereo not shown) ?
Completion: 92.11
